TARGET OR SYSTEM: Zinc finger protein mex-5 (Caenorhabditis elegans) (UniProt Q9XUB2)
Sequence (Q9XUB2 whole entry, looked up): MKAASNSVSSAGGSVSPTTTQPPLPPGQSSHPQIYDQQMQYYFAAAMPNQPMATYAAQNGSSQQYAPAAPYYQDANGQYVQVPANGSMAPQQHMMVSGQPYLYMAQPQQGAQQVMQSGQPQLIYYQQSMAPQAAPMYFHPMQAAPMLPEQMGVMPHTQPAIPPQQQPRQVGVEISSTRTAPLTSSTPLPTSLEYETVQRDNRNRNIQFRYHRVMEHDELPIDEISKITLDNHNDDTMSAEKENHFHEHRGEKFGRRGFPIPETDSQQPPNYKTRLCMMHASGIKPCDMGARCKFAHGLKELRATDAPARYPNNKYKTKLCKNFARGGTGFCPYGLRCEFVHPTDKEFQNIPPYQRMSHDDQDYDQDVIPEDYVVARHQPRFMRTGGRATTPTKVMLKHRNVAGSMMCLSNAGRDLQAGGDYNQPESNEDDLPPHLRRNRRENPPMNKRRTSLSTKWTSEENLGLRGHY
MEASUREMENT DESCRIPTION: MEX-5 zinc finger RNA-binding disruptors – biochemical, C. elegans, fluorescence polarization, MLPCN library, primary screen (AID 1832);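 further: 0% = DMSO and -100% = 5 µM competing unlabeled TCR2 RNA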
RECORDED CONDITIONS: MEX-5/FITC-TCR2 RNA binding, at 10 µM, stronger effect = lower value
Out of some 300,000 compounds screened, about 1,100 (0.37%) were called active. The sample holds actives, similar compounds and a random draw of the others, so the mix is not that of the screen.
READOUT LABEL: activity score (negative = inhibition of binding) (%)

MOL | OBSERVED RESULT
O=C(N/N=C\c1ccc(-c2ccc(Cl)c(Cl)c2)o1)C(=O)N1CCCC1 | -55.2
O=C(Cn1cncn1)N/N=C/c1c2ccccc2cc2ccccc12 | -30
COC(=O)N/N=C/c1ccc(-c2ccc(Cl)c(Cl)c2)o1 | 2.42
COc1ccc(NC(=O)CCn2ccnc2)c(OC)c1 | -0.322
COc1cccc(NC(=O)C(=O)c2cn(CC(=O)N3CCOCC3)c3ccccc23)c1 | -27.9
Cc1cccc(NC(=O)c2nc(S(=O)(=O)Cc3ccccc3)ncc2Cl)c1 | 2.04
